- targetEntity: Cbl-b (36-427 aa truncated form, N-terminus Avi-tag) (Homo sapiens (Human))
- protocolNotes: Cbl-b binding: TR-FRET displacement of BODIPY-FL probe
reportedMetric: IC50

Consider the following illustrative entries.
CSc1cc(CN2CCC[C@H](C)C2)cc2c1CN(c1cc(C3(Cc4nncn4C)COC3)cc(N)n1)C2=O [Compound 173] | 0.001 to 0.005 µM
Cn1cnnc1CC1(c2cc(NCCC#N)nc(N3Cc4c(cc(CN5CC6(F)CC(CO)(C5)C6)cc4C(F)(F)F)C3=O)c2)COC1.O=C(O)C(F)(F)F [Compound 164, trifluoroacetic acid] | 0.00501 to 0.02 µM
CCNc1cc([C@]2(c3nncn3C)C[C@H](C)C2)cc(N2Cc3c(cc(CN4CCC[C@H](C)C4)cc3S(C)(=O)=O)C2=O)n1 [Compound 172] | 0.1 to 1 µM

Query block: What value of IC50 has been recorded for this entry: CCC(CC#N)Nc1cc(C2(Cc3nncn3C)COC2)cc(N2Cc3c(cc(CN4CCC[C@H](C)C4)cc3C(F)(F)F)C2=O)n1.O=C(O)C(F)(F)F (stereo partly shown) [Compound 135, trifluoroacetic acid]
Result block: 0.00501 to 0.02 µM

Query block: Another compound to check: CCNc1cc(C2(Cc3nncn3C)COC2)cc(N2Cc3c(SC)cc(CN4CCC[C@H](C)C4)cc3C2=O)n1 [Compound 126]
Result block: 0.001 to 0.005 µM

Query block: Another compound to check: C=CCS(=O)(=O)N1CCN(c2cc(C3(Cc4nncn4C)COC3)cc(N3Cc4c(cc(CN5CCC[C@H](C)C5)cc4C(F)(F)F)C3=O)n2)CC1 [Compound 133]
Result block: 0.00501 to 0.02 µM

Query block: Another compound to check: C[C@H]1CCCN(Cc2cc(C=O)c3c(c2)C(=O)N(c2cc(C4(Cc5nncn5C)COC4)cc(NCCC#N)n2)C3)C1 [Compound 177]
Result block: 0.001 to 0.005 µM

Query block: Another compound to check: C[C@H]1CCCN(Cc2cc3c(c(C(F)(F)F)c2)CN(c2cc(C4(Cc5nncn5C)COC4)cc(OCCCC#N)n2)C3=O)C1.O=C(O)C(F)(F)F [Compound 122, trifluoroacetic acid]
Result block: 0.001 to 0.005 µM

Query block: Another compound to check: CCNc1cc(C2(c3nncn3C)CC(C)C2)cc(N2Cc3c(SC)cc(CN4CCC[C@H](C)C4)cc3C2=O)n1 (stereo partly shown) [Compound 181]
Result block: 0.001 to 0.005 µM

Query block: Another compound to check: C[C@H]1CCCN(Cc2cc3c(c(C(F)(F)F)c2)CN(c2cc(C4(Cc5nncn5C)COC4)cc(N4CCN(C(=O)CN=[N+]=[N-])CC4)n2)C3=O)C1 [Compound 132]
Result block: 0.02 to 0.1 µM

Query block: Another compound to check: C[C@H](Cc1nncn1C)c1cccc(NC(=O)c2ccc(C=O)c(C3CC3)n2)c1 [Compound 156]
Result block: 0.02 to 0.1 µM

###

- targetEntity: Cbl-b (36-427 aa truncated form, N-terminus Avi-tag) (Homo sapiens (Human), UniProt Q13191)
- Sequence (Q13191 36-427): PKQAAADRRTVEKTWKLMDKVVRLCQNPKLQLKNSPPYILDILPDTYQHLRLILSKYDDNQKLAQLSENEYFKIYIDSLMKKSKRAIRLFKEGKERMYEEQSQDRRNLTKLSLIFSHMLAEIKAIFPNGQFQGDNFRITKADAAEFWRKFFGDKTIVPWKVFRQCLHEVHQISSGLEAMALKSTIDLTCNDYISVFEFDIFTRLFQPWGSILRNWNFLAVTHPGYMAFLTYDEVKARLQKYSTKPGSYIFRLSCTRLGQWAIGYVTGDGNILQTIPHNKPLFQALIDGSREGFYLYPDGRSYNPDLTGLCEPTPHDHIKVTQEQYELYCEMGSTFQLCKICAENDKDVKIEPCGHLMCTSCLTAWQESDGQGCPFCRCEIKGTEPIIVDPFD
- protocolNotes: Cbl-b binding: TR-FRET displacement of BODIPY-FL probe
pIC50: −log10 of the molar value.
reportedMetric: pIC50

Query block: What value of pIC50 has been recorded for this entry: CCNc1cc([C@]2(c3nncn3C)C[C@H](C)C2)cc(N2Cc3ncc(CN4CCC[C@H](C)C4)cc3C2=O)n1
Result block: 7.70 to 8.30

Query block: Another compound to check: CCSc1cc(C2(Cc3nncn3C)COC2)cc(N2Cc3c(C#N)cc(CN4CCC[C@H](C)C4)cc3C2=O)n1
Result block: 7.70 to 8.30

Query block: Another compound to check: C#CCN1CCN(c2cc(C3(Cc4nncn4C)COC3)cc(N3Cc4c(cc(CN5CCC[C@H](C)C5)cc4C(F)(F)F)C3=O)n2)CC1
Result block: 7.00 to 7.70
